assay: activity coefficient (dimensionless); of the first substance listed, at infinite dilution; xn = mol fraction of the nth substance listed; conditions: 322.35 K; Liquid; Chromatography; x1 = 0
RECORDED ENDPOINT: activity coefficient

| COMPOUND | activity coefficient |
| --- | --- |
| CCCCCCCC [octane] + CCCCCCCCCCCCCC[P+](CCCCCC)(CCCCCC)CCCCCC.O=S(=O)([N-]S(=O)(=O)C(F)(F)F)C(F)(F)F | 1.42 |
| CC1CCCC1 [methylcyclopentane] + CCCCCCCCCCCCCC[P+](CCCCCC)(CCCCCC)CCCCCC.O=S(=O)([N-]S(=O)(=O)C(F)(F)F)C(F)(F)F | 0.8 |

Then there is this compound:
The compound listed as CCCCCCCCC [nonane] + CCCCCCCCCCCCCC[P+](CCCCCC)(CCCCCC)CCCCCC.O=S(=O)([N-]S(=O)(=O)C(F)(F)F)C(F)(F)F has a reported activity coefficient of 1.8

###

experiment: activity coefficient (dimensionless); of the first substance listed, at infinite dilution; xn = mol fraction of the nth substance listed; conditions: 302.45 K; Liquid; Chromatography; x1 = 0
Output Yes for records whose activity coefficient is lower than 0.8, No for records at or above 0.8.

Confirm or reject: activity coefficient of CCC(C)CC [3-methylpentane] + CCCCCCCCCCCCCC[P+](CCCCCC)(CCCCCC)CCCCCC.O=S(=O)([N-]S(=O)(=O)C(F)(F)F)C(F)(F)F lies strictly below 0.8
No

###

Quick reference for activity coefficient among some compounds
test: activity coefficient (dimensionless); of the first substance listed, at infinite dilution; xn = mol fraction of the nth substance listed; conditions: 342.45 K; Liquid; Chromatography; x1 = 0
Just the number, please.

| COMPOUND | activity coefficient |
| --- | --- |
| c1ccsc1 [thiophene] + CCCCCCCCCCCCCC[P+](CCCCCC)(CCCCCC)CCCCCC.O=S(=O)([N-]S(=O)(=O)C(F)(F)F)C(F)(F)F | 0.38 |
| CCC=O [propanal] + CCCCCCCCCCCCCC[P+](CCCCCC)(CCCCCC)CCCCCC.O=S(=O)([N-]S(=O)(=O)C(F)(F)F)C(F)(F)F | 0.31 |
| C1CCCCC1 [cyclohexane] + CCCCCCCCCCCCCC[P+](CCCCCC)(CCCCCC)CCCCCC.O=S(=O)([N-]S(=O)(=O)C(F)(F)F)C(F)(F)F | 0.75 |
| c1ccccc1 [benzene] + CCCCCCCCCCCCCC[P+](CCCCCC)(CCCCCC)CCCCCC.O=S(=O)([N-]S(=O)(=O)C(F)(F)F)C(F)(F)F | 0.39 |
| CCC(C)=O [butanone] + CCCCCCCCCCCCCC[P+](CCCCCC)(CCCCCC)CCCCCC.O=S(=O)([N-]S(=O)(=O)C(F)(F)F)C(F)(F)F | 0.23 |

Looking up CCCCO [butan-1-ol] + CCCCCCCCCCCCCC[P+](CCCCCC)(CCCCCC)CCCCCC.O=S(=O)([N-]S(=O)(=O)C(F)(F)F)C(F)(F)F , I see its activity coefficient listed as 1.04

###

test: activity coefficient (dimensionless); of the first substance listed, at infinite dilution; xn = mol fraction of the nth substance listed; details: 302.45 K; Liquid; Chromatography; x1 = 0
Below, each of the compounds is paired with its reported activity coefficient value.
// response body must contain only the number

Previously resolved entries follow.
| COMPOUND | activity coefficient |
| --- | --- |
| ClCCl [dichloromethane] + CCCCCCCCCCCCCC[P+](CCCCCC)(CCCCCC)CCCCCC.O=S(=O)([N-]S(=O)(=O)C(F)(F)F)C(F)(F)F | 0.23 |
| C[N+](=O)[O-] [nitromethane] + CCCCCCCCCCCCCC[P+](CCCCCC)(CCCCCC)CCCCCC.O=S(=O)([N-]S(=O)(=O)C(F)(F)F)C(F)(F)F | 0.77 |
| C=O [methanal] + CCCCCCCCCCCCCC[P+](CCCCCC)(CCCCCC)CCCCCC.O=S(=O)([N-]S(=O)(=O)C(F)(F)F)C(F)(F)F | 0.06 |

response.value for CCCCCCCC [octane] + CCCCCCCCCCCCCC[P+](CCCCCC)(CCCCCC)CCCCCC.O=S(=O)([N-]S(=O)(=O)C(F)(F)F)C(F)(F)F (field: activity coefficient) = 1.48

Value of measured activity coefficient for the entry C#CCCCCC [1-heptyne] + CCCCCCCCCCCCCC[P+](CCCCCC)(CCCCCC)CCCCCC.O=S(=O)([N-]S(=O)(=O)C(F)(F)F)C(F)(F)F : 0.77

###

assay: activity coefficient (dimensionless); of the first substance listed, at infinite dilution; xn = mol fraction of the nth substance listed; conditions: 342.45 K; Liquid; Chromatography; x1 = 0
RECORDED ENDPOINT: activity coefficient
Number only, no unit.

| COMPOUND | activity coefficient |
| --- | --- |
| CCCCCCCCCCC [undecane] + CCCCCCCCCCCCCC[P+](CCCCCC)(CCCCCC)CCCCCC.O=S(=O)([N-]S(=O)(=O)C(F)(F)F)C(F)(F)F | 2.1 |
| CCCCCCCC [octane] + CCCCCCCCCCCCCC[P+](CCCCCC)(CCCCCC)CCCCCC.O=S(=O)([N-]S(=O)(=O)C(F)(F)F)C(F)(F)F | 1.4 |
| CCCCCCC [heptane] + CCCCCCCCCCCCCC[P+](CCCCCC)(CCCCCC)CCCCCC.O=S(=O)([N-]S(=O)(=O)C(F)(F)F)C(F)(F)F | 1.19 |

Briefly, activity coefficient measured for CCCC(C)=O [pentan-2-one] + CCCCCCCCCCCCCC[P+](CCCCCC)(CCCCCC)CCCCCC.O=S(=O)([N-]S(=O)(=O)C(F)(F)F)C(F)(F)F : 0.33

Reported activity coefficient of c1ccncc1 [pyridine] + CCCCCCCCCCCCCC[P+](CCCCCC)(CCCCCC)CCCCCC.O=S(=O)([N-]S(=O)(=O)C(F)(F)F)C(F)(F)F : 0.34

Form: compound = CO [methanol] + CCCCCCCCCCCCCC[P+](CCCCCC)(CCCCCC)CCCCCC.O=S(=O)([N-]S(=O)(=O)C(F)(F)F)C(F)(F)F ; activity coefficient = 0.86

Per the record, CCCC=O [butanal] + CCCCCCCCCCCCCC[P+](CCCCCC)(CCCCCC)CCCCCC.O=S(=O)([N-]S(=O)(=O)C(F)(F)F)C(F)(F)F has activity coefficient of 0.35

Item: Cc1ccccc1 [toluene] + CCCCCCCCCCCCCC[P+](CCCCCC)(CCCCCC)CCCCCC.O=S(=O)([N-]S(=O)(=O)C(F)(F)F)C(F)(F)F | activity coefficient: 0.47

###

experiment: activity coefficient (dimensionless); of the first substance listed, at infinite dilution; xn = mol fraction of the nth substance listed; settings: 342.45 K; Liquid; Chromatography; x1 = 0
# if value of activity coefficient reaches 0.9, tag Yes; if it stays below, tag No

These recorded examples may help you get a feel for the data.
| COMPOUND | ASSIGNED CLASS |
| --- | --- |
| ClC(Cl)(Cl)Cl [tetrachloromethane] + CCCCCCCCCCCCCC[P+](CCCCCC)(CCCCCC)CCCCCC.O=S(=O)([N-]S(=O)(=O)C(F)(F)F)C(F)(F)F | No |
| CCO [ethanol] + CCCCCCCCCCCCCC[P+](CCCCCC)(CCCCCC)CCCCCC.O=S(=O)([N-]S(=O)(=O)C(F)(F)F)C(F)(F)F | Yes |
| CC1CCCCC1 [methylcyclohexane] + CCCCCCCCCCCCCC[P+](CCCCCC)(CCCCCC)CCCCCC.O=S(=O)([N-]S(=O)(=O)C(F)(F)F)C(F)(F)F | No |
| CC1CCCC1 [methylcyclopentane] + CCCCCCCCCCCCCC[P+](CCCCCC)(CCCCCC)CCCCCC.O=S(=O)([N-]S(=O)(=O)C(F)(F)F)C(F)(F)F | No |
| ClC(Cl)Cl [trichloromethane] + CCCCCCCCCCCCCC[P+](CCCCCC)(CCCCCC)CCCCCC.O=S(=O)([N-]S(=O)(=O)C(F)(F)F)C(F)(F)F | No |
| CCCO [propan-1-ol] + CCCCCCCCCCCCCC[P+](CCCCCC)(CCCCCC)CCCCCC.O=S(=O)([N-]S(=O)(=O)C(F)(F)F)C(F)(F)F | Yes |
| CCCCCCCCCC [decane] + CCCCCCCCCCCCCC[P+](CCCCCC)(CCCCCC)CCCCCC.O=S(=O)([N-]S(=O)(=O)C(F)(F)F)C(F)(F)F | Yes |
| CC(C)OC(C)C [diisopropyl ether] + CCCCCCCCCCCCCC[P+](CCCCCC)(CCCCCC)CCCCCC.O=S(=O)([N-]S(=O)(=O)C(F)(F)F)C(F)(F)F | No |
| CCC[N+](=O)[O-] [1-nitropropane] + CCCCCCCCCCCCCC[P+](CCCCCC)(CCCCCC)CCCCCC.O=S(=O)([N-]S(=O)(=O)C(F)(F)F)C(F)(F)F | Yes |

Lab note: next compound to report on.
Dear colleague, could you confirm whether C#CCCCCC [1-heptyne] + CCCCCCCCCCCCCC[P+](CCCCCC)(CCCCCC)CCCCCC.O=S(=O)([N-]S(=O)(=O)C(F)(F)F)C(F)(F)F has activity coefficient at or above 0.9?
No
